assay: In vitro human mitochondrial fraction intrinsic clearance of SPL026 and SPL028 analogues; details: human, liver mitochondrial fraction, Half-Life R4, human liver mitochondrial fraction, replicate R4
recordedEndpoint: half-life (min)
Just the number in min, nothing appended.

Past entries and their recorded results:
NCCc1c[nH]c2ccc(O)cc12 = 8.5
[2H]C([2H])([2H])N(CCc1c[nH]c2ccccc12)C([2H])([2H])[2H] = 10.9
CN(C)CCc1c[nH]c2ccccc12 = 8.3
NCc1ccccc1 = 23.5

// next entry
# input Look at this compound and give its reported half-life. [2H]C([2H])(Cc1c[nH]c2ccccc12)N(C)C [SPL028i, α,α-dideutero-N,N-dimethyltryptamine]
# output 72.1
